Reference for the values: paper PMC10053980

# Experimental Details: physchem
# Assay type: physicochemical
# Experimental Context: pH 6.5, aqueous buffer, kinetic from dmso stock
Observation Type: solubility

Which solubility value belongs to Cc1cccc(C)c1CC1CN(C(=O)[C@@H](N)Cc2ccc(O)cc2)C1 [(S)-SW703] ? > 34 µg/mL

---

# Test system: Dd2-Polδ (parent)
# Experimental Details: Asexual blood-stage EC50
# Assay type: cell-based
# Experimental Context: Plasmodium falciparum, DD2, read-out: (S)-SW703 EC50
Observation Type: EC50 (µM)
The reply should contain only the number, in µM.

Reported EC50, molecule Cc1cccc(C)c1CC1CN(C(=O)[C@@H](N)Cc2ccc(O)cc2)C1 [(S)-SW703] : ____ 0.93
